src = ChEMBL document CHEMBL1143705

I'd appreciate it if you could supply CC50 values for the items below.
Test system: A549
Test: Cytotoxicity against human A549 cells by SRB assay
Format: functional
Conditions: read-out: LC50 (the source's name)

Q: Identify CC50 associated with the compound `COC1=C(Br)[C@H](O)[C@@]2(C=C1Br)CC(C(=O)NCCCCCNC(=O)C1=NO[C@]3(C=C(Br)C(OC)=C(Br)[C@@H]3O)C1)=NO2`
Ans: > 10 µg/mL

Q: Return value of CC50 for input `COc1cccc2c1C(=O)c1c(O)c3c(c(O)c1C2=O)C[C@@](O)(C(=O)CO)C[C@@H]3O[C@H]1C[C@H](N)[C@H](O)[C@H](C)O1` , no commentary.
Ans: 1 µM

Q: Supply CC50 value. Item: `COC1=C(Br)[C@H](O)[C@@]2(C=C1Br)CC(C(=O)NCCCCCNC(=O)C1=NO[C@]3(C=C(Br)C(=O)[C@@H](Br)[C@@H]3O)C1)=NO2`
Ans: > 10 µg/mL

Q: Quote CC50 reported for `COC1=C(Br)[C@H](O)[C@@]2(C=C1Br)CC(C(=O)NCCCCNC(=O)C1=NO[C@]3(C=C(Br)C(OC)=C(Br)[C@@H]3O)C1)=NO2` please.
Ans: > 10 µg/mL

Q: Supply reported CC50 belonging to this compound: `O=C(NCCCCCNC(=O)C1=NO[C@]2(C=C(Br)C(=O)[C@@H](Br)[C@@H]2O)C1)C1=NO[C@]2(C=C(Br)C(=O)[C@@H](Br)[C@@H]2O)C1`
Ans: 4.1 µM

Q: For the compound `COC1=C(Br)[C@H](O)[C@@]2(C=C1Br)CC(C(=O)NCCCCCNC(=O)C1=NO[C@]3(C=C(Br)C(=O)[C@@H]4O[C@@H]43)C1)=NO2` , give its reported CC50.
Ans: > 10 µg/mL

Q: Tell me CC50 reported for `COC1(OC)C(Br)=C[C@@]2(CC(C(=O)NCCCCCNC(=O)C3=NO[C@]4(C=C(Br)C(OC)(OC)[C@@H](Br)[C@@H]4O)C3)=NO2)[C@@H](O)[C@@H]1Br`
Ans: > 10 µg/mL

Q: Give the reported value of CC50 for this record: `COC1=C(Br)[C@H](O)[C@@]2(C=C1Br)CC(C(=O)NCCCCCNC(=O)C1=NO[C@]3(C=C(Br)C(=O)[C@H](Br)[C@@H]3O)C1)=NO2`
Ans: 11.2 µM

Q: Consider the compound `O=C(NCCCCCNC(=O)C1=NO[C@]2(C=C(Br)C(=O)[C@H](Br)[C@@H]2O)C1)C1=NO[C@]2(C=C(Br)C(=O)[C@H](Br)[C@@H]2O)C1` . State its measured CC50.
Ans: 5.5 µM

Q: Please give measured CC50 of the following entry: `COC1=C(Br)[C@H](O)[C@@]2(C=C1Br)CC(C(=O)NCCCCCNC(=O)C1=NO[C@]3(C=C(Br)C(OC)(OC)[C@@H](Br)[C@@H]3O)C1)=NO2`
Ans: > 10 µg/mL

Q: Give the reported value of CC50 for this record: `COC1=C(Br)[C@H](O)[C@@]2(C=C1Br)CC(C(=O)NCCCCNC(=O)C1=NO[C@]3(C=C(Br)C(=O)[C@H](Br)[C@@H]3O)C1)=NO2`
Ans: > 10 µg/mL

Q: Report CC50, nothing else, for this compound: `COC1=C(Br)[C@H](O)[C@@]2(C=C1Br)CC(C(=O)NCCCCNC(=O)C1=NO[C@]3(C=C(Br)C(=O)[C@@H](Br)[C@@H]3O)C1)=NO2`
Ans: > 10 µg/mL
